# assay system: SMBS on rat lung membranes (Rattus norvegicus)
# Construct: from tissue; host or cells: rat lung membranes (SD male rats)
# Sequence (A0A8I6A822 27-587): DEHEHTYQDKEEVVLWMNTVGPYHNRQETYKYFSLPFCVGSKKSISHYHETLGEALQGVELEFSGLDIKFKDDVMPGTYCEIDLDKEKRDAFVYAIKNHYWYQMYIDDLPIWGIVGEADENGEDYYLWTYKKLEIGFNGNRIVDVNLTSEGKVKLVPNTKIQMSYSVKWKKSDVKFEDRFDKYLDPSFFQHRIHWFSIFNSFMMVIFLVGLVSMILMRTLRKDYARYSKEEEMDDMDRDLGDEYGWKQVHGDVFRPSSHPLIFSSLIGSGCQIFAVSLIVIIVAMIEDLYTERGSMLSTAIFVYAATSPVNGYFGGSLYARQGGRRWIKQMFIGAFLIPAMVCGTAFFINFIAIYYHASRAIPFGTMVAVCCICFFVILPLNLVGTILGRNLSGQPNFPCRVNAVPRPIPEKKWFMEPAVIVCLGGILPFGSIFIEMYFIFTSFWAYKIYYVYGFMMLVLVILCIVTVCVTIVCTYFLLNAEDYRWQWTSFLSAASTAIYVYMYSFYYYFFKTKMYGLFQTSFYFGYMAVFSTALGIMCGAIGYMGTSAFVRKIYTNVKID
# assay overview: Receptor binding of the compound in rat lung membranes ([125I]-iodo-cyanopindolol ligand binding assay; Experiments 1 and 4)
# test parameters: Table 43; concentration tested 30 μM; rat lung membranes; Experiment 4; read-out: Binding Activity (30 μM)
endpoint label: inhibition at 30 µM (%)

1. CN(C)CCNC(=O)NCCCn1c(-c2ccc(N3CCOCC3)cc2)csc1=Nc1ccc(F)cc1    100
2. COc1ccc(C/N=c2\scc(-c3ccc(OC(F)(F)F)cc3)n2CCCN)c(OC)c1    117
3. COCCOCCNCCCn1c(-c2ccc(F)cc2)cs/c1=N\c1ccc(Cl)cc1OC    102
4. CCNC(=O)CNCCCn1c(-c2ccc(OC(F)(F)F)cc2)cs/c1=N\Cc1ccc(Cl)cc1    113
5. CN(C)CC(=O)NCCCn1c(-c2ccc(N3CCOCC3)cc2)cs/c1=N\c1ccc(F)cc1    88
6. CCNC(=O)NCCCn1c(COCc2ccccc2)cs/c1=N\c1ccc(OC)cn1    48
7. O=C(CNc1ccccc1)NCCCn1c(-c2ccc(N3CCOCC3)cc2)cs/c1=N\c1ccc(F)cc1    82
8. CCNC(=O)NCCCn1c(-c2ccc(F)cc2)cs/c1=N\Cc1ccc(Cl)cc1OC    79

(I) O=C(CN1CCCC1)NCCCn1c(-c2ccc(OC(F)(F)F)cc2)cs/c1=N\Cc1ccc(Cl)cc1
(II) CN(C)C(=O)CNCCCn1c(-c2ccc(N3CCOCC3)cc2)cs/c1=N\c1ccc(F)cc1
(III) CCNC(=O)NCCCn1c(CN(C)Cc2ccc(Cl)cc2)cs/c1=N\c1ccc(OC(F)(F)F)cc1
Q: Descending sort on inhibition at 30 µM required. Form entry: labels listed in requested order.
A: I, II, III
